# Test system: BRCA2
# ASSAY REMARKS: 3' UTR reporter interaction score (median-centred robust z-score of log2 firefly/Renilla activity); higher = less repression of the 3' UTR reporter
# ASSAY CONDITIONS: HEK293T; 48 h
Record met whenever 3' UTR reporter interaction score is at -0.2 or higher; record not met when lower.

Solved cases below.
UUUGGCACUAGCACAUUUUUGC: met
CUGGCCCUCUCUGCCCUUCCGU: met
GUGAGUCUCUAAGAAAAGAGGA: met
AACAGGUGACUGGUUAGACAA: not met

Determine whether measured 3' UTR reporter interaction score meets or exceeds -0.2 for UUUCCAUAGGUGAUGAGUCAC not met

Is the recorded value of 3' UTR reporter interaction score equal to or greater than -0.2 for this sequence? CACUCAGCCUUGAGGGCACUUUC met

Threshold query (3' UTR reporter interaction score >= -0.2) on CCACUGCCCCAGGUGCUGCUGG not met

Check if 3' UTR reporter interaction score >= -0.2 (inclusive). Item: AAUCGUACAGGGUCAUCCACUU met

Is reported 3' UTR reporter interaction score greater than or equal to -0.2 here: UCCAGUACCACGUGUCAGGGCCA met

Form field: 3' UTR reporter interaction score at least -0.2? Entry: AUUCAUUUGGUAUAAACCGCGAU not met

Item GACCUGGACAUGUUUGUGCCCAGU with 3' UTR reporter interaction score of -0.2 or above? met

State whether the measured 3' UTR reporter interaction score reaches -0.2, counting equality as reaching it, for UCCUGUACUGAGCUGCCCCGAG not met

Decide: is the reported value of 3' UTR reporter interaction score for AAGUGCUGUCAUAGCUGAGGUC equal to or greater than -0.2? met

Decide: 3' UTR reporter interaction score of AGCUGUCUGAAAAUGUCUU >= -0.2? not met

Dear colleague, could you confirm whether GUGCAUUGCUGUUGCAUUGCA has 3' UTR reporter interaction score at or above -0.2? not met

# bool: 3' UTR reporter interaction score of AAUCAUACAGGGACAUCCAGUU >= -0.2 not met

Hi, just wondering whether AUGCACCUGGGCAAGGAUUCUG shows 3' UTR reporter interaction score of -0.2 or higher. met

Is it the case that AGGGAUCGCGGGCGGGUGGCGGCCU has 3' UTR reporter interaction score reaching or exceeding -0.2? met

Given the entry AAAGUGCAUCUUUUUAGAGGAU , answer whether its 3' UTR reporter interaction score meets or surpasses -0.2. not met

Please tell me: is the sequence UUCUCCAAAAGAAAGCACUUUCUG at or over -0.2 in terms of 3' UTR reporter interaction score? met

Would you say UAAGUGCUUCCAUGUUUCAGUGG shows 3' UTR reporter interaction score at minimum -0.2? met

----------
# System: FBXW7
# ASSAY REMARKS: 3' UTR reporter interaction score (median-centred robust z-score of log2 firefly/Renilla activity); higher = less repression of the 3' UTR reporter
# ASSAY CONDITIONS: HEK293T; 48 h
Each entry gets No if its 3' UTR reporter interaction score stays under -0.2, and Yes if its 3' UTR reporter interaction score is -0.2 or above.

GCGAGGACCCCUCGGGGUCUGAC: Yes
UAGCACCAUUUGAAAUCGGU: No
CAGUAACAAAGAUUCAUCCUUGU: Yes
UGAGCUGCUGUACCAAAAU: Yes
UCUGCUCAUACCCCAUGGUUUCU: No

Test whether the sequence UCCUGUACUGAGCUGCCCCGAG records 3' UTR reporter interaction score of -0.2 or higher. Yes

# bool: 3' UTR reporter interaction score of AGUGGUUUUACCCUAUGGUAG >= -0.2 Yes

Given CAAAAAUCUCAAUUACUUUUGC , state whether its 3' UTR reporter interaction score is at least -0.2. Yes

Reported 3' UTR reporter interaction score reaches at least -0.2 for AUCAGCAAACAUUUAUUGUGUG ? No

Hi team, for UUUCAAGCCAGGGGGCGUUUUUC , is the recorded 3' UTR reporter interaction score at or above -0.2? Yes

Check the entry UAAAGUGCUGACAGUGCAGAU : does 3' UTR reporter interaction score equal or exceed -0.2? No

Kindly determine if 3' UTR reporter interaction score recorded for GCGACCCAUACUUGGUUUCAG is above or exactly -0.2. Yes

----------
# Test system: MYT1L
# ASSAY REMARKS: 3' UTR reporter interaction score (median-centred robust z-score of log2 firefly/Renilla activity); higher = less repression of the 3' UTR reporter
# ASSAY CONDITIONS: HEK293T; 48 h
PARAMETER MEASURED: 3' UTR reporter interaction score
Give bare numbers.

Some sequences with recorded 3' UTR reporter interaction score:
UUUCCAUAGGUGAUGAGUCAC: -0.218
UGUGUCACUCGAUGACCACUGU: -1.73

# per-item lookup of 3' UTR reporter interaction score; items listed below
1. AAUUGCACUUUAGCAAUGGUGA
2. CCCAGUGUUCAGACUACCUGUUC
3. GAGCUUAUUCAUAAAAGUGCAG
4. UGGAAUGUAAAGAAGUAUGUA
5. AGAGGUAUAGGGCAUGGGAAAA
6. UAAUACUGCCUGGUAAUGAUGAC

1. 0.317
2. 2.99
3. -2.82
4. -0.17
5. 0.692
6. 1.12

----------
# System: ZEB2
# ASSAY REMARKS: 3' UTR reporter interaction score (median-centred robust z-score of log2 firefly/Renilla activity); higher = less repression of the 3' UTR reporter
# ASSAY CONDITIONS: HEK293T; 48 h
Answer n if 3' UTR reporter interaction score is under 1, and y if it is 1 or more.

Use the examples below as a reference point.
UGUCAGUUUGUCAAAUACCCC: y
AAGCAGCUGCCUCUGAGGC: y
AUCACAUUGCCAGGGAUUUCC: y

Record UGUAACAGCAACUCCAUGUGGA ; criterion: 3' UTR reporter interaction score no lower than 1. Met? n

Is 3' UTR reporter interaction score for AGGCUGCGGAAUUCAGGAC at or above 1? y

Confirm if 3' UTR reporter interaction score reported for the sequence UCAGUGCAUCACAGAACUUUGU is 1 or above. y

For this sequence, is measured 3' UTR reporter interaction score 1 or higher? UGUGCAAAUCUAUGCAAAACUGA n

Given the entry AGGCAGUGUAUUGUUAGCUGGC , answer whether its 3' UTR reporter interaction score meets or surpasses 1. n

----------
# Tested on: PHF6
# ASSAY REMARKS: 3' UTR reporter interaction score (median-centred robust z-score of log2 firefly/Renilla activity); higher = less repression of the 3' UTR reporter
# ASSAY CONDITIONS: HEK293T; 48 h
Use Met when the recorded 3' UTR reporter interaction score is no lower than 0.3; use Not met when it is lower.

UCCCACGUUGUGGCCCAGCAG: Not met
CAAAGCGCUCCCCUUUAGAGGU: Met
CCUCUGGGCCCUUCCUCCAG: Met

In plain terms: is recorded 3' UTR reporter interaction score at least 0.3 for AAACUCUACUUGUCCUUCUGAGU ? Not met

Given AAAGUGCUUCCUUUUUGAGGG , state whether its 3' UTR reporter interaction score is at least 0.3. Not met

Tell me whether 3' UTR reporter interaction score is at least 0.3 here: AAAGUGCUGCGACAUUUGAGCGU Met

----------
# System: MYCN
# ASSAY REMARKS: 3' UTR reporter interaction score (median-centred robust z-score of log2 firefly/Renilla activity); higher = less repression of the 3' UTR reporter
# ASSAY CONDITIONS: HEK293T; 48 h
Give 3' UTR reporter interaction score for every item shown.
Answers are plain numbers.

CAAAGUGCUUACAGUGCAGGUAGU: -0.306
AGGAAUGUUCCUUCUUUGCC: -0.0855
GCACAUUACACGGUCGACCUCU: 0.192
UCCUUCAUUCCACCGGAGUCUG: 0.466

Dear colleague, could you please provide 3' UTR reporter interaction score for the sequences listed below?
1. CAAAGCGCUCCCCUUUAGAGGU
2. CUGGACUUAGGGUCAGAAGGCC
3. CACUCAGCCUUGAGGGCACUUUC
4. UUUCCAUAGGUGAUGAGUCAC
5. UGAAACAUACACGGGAAACCUCUU
6. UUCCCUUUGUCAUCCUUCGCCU
7. UUUAACAUGGGGGUACCUGCUG
8. UAGGUAGUUUCAUGUUGUUGG

1. -0.228
2. 0.447
3. 1.12
4. 1.24
5. -2.74
6. 0.0207
7. 0.0587
8. -1.16

Dear reader, for each entry below, please note its 3' UTR reporter interaction score.
1. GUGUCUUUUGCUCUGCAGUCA
2. CAGCAGCACACUGUGGUUUGU
3. GGCUAGCAACAGCGCUUACCU
4. GUUGUGUCAGUUUAUCAAAC
5. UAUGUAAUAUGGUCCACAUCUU
6. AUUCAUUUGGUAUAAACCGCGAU

0.0597
-0.42
0.326
0.0505
0.254
0.523

Take each entry in turn and give its 3' UTR reporter interaction score.
1. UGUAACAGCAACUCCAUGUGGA
2. AUCAUGAUGGGCUCCUCGGUGU
3. CCUAGUAGGUGUCCAGUAAGUGU
4. UAUACAAGGGCAAGCUCUCUGU
5. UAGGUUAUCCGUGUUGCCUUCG
6. AGUGUGGCUUUCUUAGAGC

[0.331, -1.14, 0.245, -1.08, 0.616, 0.47]

Look up 3' UTR reporter interaction score for the entries below, preserving their order.
1. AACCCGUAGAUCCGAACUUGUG
2. UCAGUGCAUGACAGAACUUGGG
3. AACGCGCUUCCCUAUAGAGGG
4. ACAGUCUGCUGAGGUUGGAGC
5. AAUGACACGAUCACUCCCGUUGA

1. -0.886
2. 0.0157
3. -1.41
4. 0.116
5. -0.341

# credit: the supplement of paper PMC5844555
